- System: HT29 colon
- test: NCI-60 one-dose screen, 48 h
- reportedConditions: 10 µM unless noted
This is part of a sample that, as a whole, favours compounds with a hit. Of some 83,000 tested, about 20% had one in any assay. Calls of active or inactive are those of the source. Rule for the calls: active = growth percent below 10; inactive = the rest.
Allowed answers: active, inactive

Sample answers from the record:
O=C(NO)c1ccc(CNc2cccc3nc(C4CC4)n(-c4ccccc4)c(=O)c23)cc1	inactive
CC1CCCN(CCCCOc2ccc(-c3ccc(C#N)cc3)cc2)C1 (stereo unspecified)	inactive
S=C(Nc1ccc(Cl)cc1)Nc1ccc(Cl)cc1 (tested in a mixture with another compound)	active
O=C(/C=C/c1ccccc1)c1c[nH]c2ccccc2c1=O	active
O=C1/C(=C/c2cc(F)cc(F)c2)Cc2cc(F)cc(F)c21	inactive
CCOC(=O)C1=C(C)NC(=S)NC1c1ccccc1 (stereo unspecified)	inactive
CCNC(=O)c1ccc2c(c1)nc(-c1ccc(Cl)cc1)n2-c1cc(C(C)(C)C)[nH]n1	inactive
CCOC(=O)Nc1ccc2nc(N3CCCCCC3)sc2c1	active
Cc1ccc([C@H]2c3[nH]c4ccccc4c3C[C@H]3C(=O)N(CCCCCCC(=O)NO)CC(=O)N23)cc1	inactive
CCOC(=O)C1C(=O)C=C(c2ccccc2)CC1c1sc(N(C)Cc2ccccc2)nc1Cl (stereo unspecified)	inactive

# fetch the recorded call for C=CCOC(=O)C1=C(C)NC2=C(C(=O)CCC2)C1c1ccc(F)cc1 (stereo unspecified) here
inactive

# fetch the recorded call for `CCOC(=O)N1C2CCC(C2)N1C(=O)OCC` here
inactive

# fetch the recorded call for `COc1cnc2c(c1)C(=O)c1c-2n(CCCN2CCCC2)c(=O)c2cc(Cl)ccc12` here
active

# fetch the recorded call for `ClCc1c(Cl)c(Cl)c(Cl)c(CCl)c1Cl` here
active

# fetch the recorded call for `CC(C)(C)c1cc(C[P+](c2ccccc2)(c2ccccc2)c2ccccc2)cc(C(C)(C)C)c1O` here
active

# fetch the recorded call for CCN1C(=O)N(CC)C2C1NN=c1s/c(=C\c3ccc(Br)cc3)c(=O)n12 (stereo unspecified) here
active

# fetch the recorded call for `O=C(Nc1cccc(Cl)c1)Nc1ccccc1Cl` here
inactive

# fetch the recorded call for `O=C(/C=C/c1cn(-c2ccccc2)nc1-c1ccccc1)OCc1cn(-c2cccc([N+](=O)[O-])c2)nn1` here
inactive

# fetch the recorded call for COC(=O)C(Br)(C(=O)OC)C(Br)C(Br)C(Br)c1ccccc1 (stereo unspecified) here
inactive

# fetch the recorded call for COc1ccc(C2c3cccn3-c3ccccc3N2C(C)=O)cc1 (stereo unspecified) here
inactive

# fetch the recorded call for `COc1ccccc1/C=N\Nc1ccc([N+](=O)[O-])cn1` here
inactive

---

We begin with a simple list: items and their reported growth.
- Test system: SN12C renal
- test: NCI-60 one-dose screen, 48 h (100 = growth as untreated, 0 = no growth, -100 = all killed)
- reportedConditions: 10 µM unless noted
Compounds without any hit were thinned out: in the full panel of roughly 83,000, 20% have a hit. Calls of active or inactive are those of the source. Rule for the calls: active = growth percent below 10; inactive = the rest.

These solved cases illustrate the format of a correct answer.
CCCCc1nc(Cl)c(C2CC(c3ccc(S(N)(=O)=O)cc3)=NN2c2cc(Cl)cc(Cl)c2)[nH]1 (stereo not given)	48.6% (inactive)
CN1C(=O)C(C2=NNC(c3ccccc3C(=O)O)C2)C(=O)N(C)C1=O (stereo not given)	97.2% (inactive)

SN12C renal growth of `CS(=O)(=O)c1ccc(C(=O)Nc2ccc(Cl)c(-c3ccccn3)c2)c(Cl)c1` is 28.2% (inactive)

SN12C renal growth of `COc1cccc(-c2nc3sccn3c2-c2ccnc(NCCN3CCCN(C)S3(=O)=O)n2)c1` is 64.7% (inactive)

SN12C renal growth of O=C1/C(=C/N2N=C(c3ccc(Cl)cc3)CC2c2ccccc2O)SC(=S)N1c1cccc(C(F)(F)F)c1 (stereo not given) is 52.6% (inactive)

SN12C renal growth of `Cc1ccccc1Nc1n[nH]c(Cc2ccccc2)n1` is 104% (inactive)

SN12C renal growth of `O=S1(=O)NCCN1CCNc1nccc(-c2c(-c3cccc(O)c3)nc3sccn23)n1` is 95.2% (inactive)

SN12C renal growth of `Cc1cccc2nc3ccccc3c(Nc3ccc(NS(C)(=O)=O)cc3)c12` is 38.9% (inactive)

SN12C renal growth of CC(C)OC1OC(OC(C)C)C(OC(C)C)OC1OC(C)C (stereo not given) is 94.6% (inactive)

SN12C renal growth of `c1ccc(-c2nnn(-c3ccccc3)n2)cc1` is 103% (inactive)

---

- Test system: NCI-H226 lung
- test: NCI-60 one-dose screen, 48 h (100 = growth as untreated, 0 = no growth, -100 = all killed)
- reportedConditions: 10 µM unless noted
Compounds without any hit were thinned out: in the full panel of roughly 83,000, 20% have a hit. Activity calls are given as the source filed them. How the source made its calls: active means growth percent below 10; inactive means the rest.
We begin with a simple list: items and their reported growth.

Entry `COc1cc([N+](=O)[O-])cc(OC)c1OC` — recorded growth = 112% (inactive)

Entry `C=CC(=O)N1CN(C(=O)C=C)CN(C(=O)C=C)C1` — recorded growth = 87% (inactive)

---

- System: SN12C renal
- test: NCI-60 one-dose screen, 48 h (100 = growth as untreated, 0 = no growth, -100 = all killed)
- reportedConditions: 10 µM unless noted
- Experimental: Growth inhibition of the SN12C human tumor cell line is measured as a screen for anti-cancer activity. Cells are grown in 96 well plates and exposed to the test compound for 48 hours. Compounds are tested at a single concentration, which is 10^-5 M for most compounds. The reported endpoint is percent growth (GI% or GIPRCNT), where numbers from 0 - 100% represent growth inhibition, and numbers from -100% - 0 represent cell death. For example, a value of 40 represents 60% growth inhibition. […]
This is part of a sample that, as a whole, favours compounds with a hit. Of some 83,000 tested, about 20% had one in any assay. Activity calls are given as the source filed them. Rule for the calls: active = growth percent below 10; inactive = the rest.
We begin with a simple list: items and their reported growth.

CC(C)CCSc1nc(-c2ccc(F)cc2)c(C#N)c(N2CCN(C)CC2)n1	88.8% (inactive)
CC(C)CC1NC(=O)C(CC(C)C)N(CO)C1=O (configuration not stated)	99.4% (inactive)
CCCCCc1c(C)[nH]c(/C=C2\N=C(c3ccc[nH]3)C=C2Oc2ccc(OC)cc2)c1C	-88.6% [100 µM] (active)
CCC(=O)NC1=C(Cl)C(=O)C(NC(=O)CC)=C(Cl)C1=O	101% (inactive)

SN12C renal growth of CCC1N=C(N)N=C(N)N1c1ccc(Cl)cc1 (configuration not stated) is 96.9% (inactive)

SN12C renal growth of `Cn1c(-c2ccccc2)cc(=O)n1-c1ccccc1` is 107% (inactive)

---

- Test system: CCRF-CEM leukemia
- test: NCI-60 one-dose screen, 48 h
- reportedConditions: 10 µM unless noted
The panel holds about 83,000 compounds, 20% with a hit somewhere; the sample as a whole holds those more often. Activity calls are given as the source filed them. Rule for the calls: active = growth percent below 10; inactive = the rest.
Allowed answers: active, inactive

Sample answers from the record:
CC(C)(CCc1ccccn1)C(=O)CCCc1ccccn1	inactive
CCCCCCCC/C=C/CCCCCCCC1=NC(C)(C)CN1c1ccccc1	inactive
N/C(=C\C(=O)n1nc(-c2ccccc2)cc1N)c1ccccc1	inactive

# fetch the recorded call for `c1cc2c(cc1-c1cnc3nonc3n1)OCO2` here
inactive

# fetch the recorded call for `O=C(Nc1ccc(-n2ccc3c(NC(=O)c4ccccc4)nccc32)cc1)c1ccc(N2CCOCC2)c(C(F)(F)F)c1` here
inactive

# fetch the recorded call for CCCCc1nc(Cl)c(C2CC(c3ccc(S(N)(=O)=O)cc3)=NN2c2cc(Cl)cc(Cl)c2)[nH]1 (stereo not given) here
inactive

# fetch the recorded call for `CC(C)CCSc1nc(-c2ccc(F)cc2)c(C#N)c(N2CCCCC2)n1` here
inactive

# fetch the recorded call for `COc1cc(/C=N/NC(=O)Cn2c(-c3ccc(C)o3)nc3ccccc32)ccc1OCc1ccccc1` here
inactive

# fetch the recorded call for CC(=O)O[C@@H]1CC2C(C)(C)CCCC2(C)C2=C1C(=O)C(C(C)C)=CC2=O (stereo not given in full) here
inactive

# fetch the recorded call for CN1C(=O)NC(Cc2c[nH]c3c(Cl)cccc23)C1=O (stereo not given) here
inactive

# fetch the recorded call for `Nc1c(N)c2ccccc2c2ccccc12` here
inactive

# fetch the recorded call for `O=C(/C=C/c1ccco1)c1ccccc1O` here
inactive

# fetch the recorded call for `CCC(=O)NC1=C(Cl)C(=O)C(NC(=O)CC)=C(Cl)C1=O` here
active

# fetch the recorded call for `CCCCCCCCN(CCCCCCCC)C(=O)CCl` here
active

---

- Test system: SK-MEL-2 melanoma
- test: NCI-60 one-dose screen, 48 h (100 = growth as untreated, 0 = no growth, -100 = all killed)
- reportedConditions: 10 µM unless noted
About 83,000 compounds went through this panel and 20% of them were active in at least one assay; those are over-represented in the sample as a whole.
We begin with a simple list: items and their reported growth.
Write down the numeric answer in % and omit the unit.

These solved cases illustrate the format of a correct answer.
COc1ccc(Cl)cc1Nc1nc(C(F)(F)F)ccc1C(=O)NN	11.7
CS(=O)(=O)c1ccc(C(=O)N/N=C/c2cccc3ccccc23)cc1	47.7
c1ccc2c(N=NSc3ncnc4nc[nH]c34)c3ccccc3nc2c1	-23.6
CCN(CC)c1ccc(/C=N/NC(=O)C[N+](C)(C)C)cc1	137
O=C(CSc1nc2c(n1Nc1ccccc1)-c1ccccc1SC2)Nc1nccs1	102

SK-MEL-2 melanoma growth of CC(C)=CC[C@@H]1CC2(CC=C(C)C)C(=O)C(OC3(C(=O)c4ccccc4)C(=O)C4(CC=C(C)C)C[C@@H](CC=C(C)C)C(C)(C)C(CC=C(C)C)(C4=O)C3=O)(C(=O)c3ccccc3)C(=O)C(CC=C(C)C)(C2=O)C1(C)C (some centres undefined) is -46.8

SK-MEL-2 melanoma growth of `Cc1cc(-c2ccccc2)on1` is 107

SK-MEL-2 melanoma growth of `O=P(O)(O)C(O)(Cc1cccnc1)P(=O)(O)O` is 111

SK-MEL-2 melanoma growth of CC(=O)OC[C@H]1O[C@@H](n2c(=O)cc(N)[nH]c2=O)C(OC(C)=O)[C@@H]1OC(C)=O (some centres undefined) is 105
